Recorded koff, one value per entry.
Target: T1, human IL-23 (human, UniProt P29460 23-328; Q9NPF7 20-189)
T1 construct: Recombinant (Ebioscience); HIS-tagged in flow cytometry, biotinylated in some assays; also called hIL-23; rhIL-23
T1 sequence 1: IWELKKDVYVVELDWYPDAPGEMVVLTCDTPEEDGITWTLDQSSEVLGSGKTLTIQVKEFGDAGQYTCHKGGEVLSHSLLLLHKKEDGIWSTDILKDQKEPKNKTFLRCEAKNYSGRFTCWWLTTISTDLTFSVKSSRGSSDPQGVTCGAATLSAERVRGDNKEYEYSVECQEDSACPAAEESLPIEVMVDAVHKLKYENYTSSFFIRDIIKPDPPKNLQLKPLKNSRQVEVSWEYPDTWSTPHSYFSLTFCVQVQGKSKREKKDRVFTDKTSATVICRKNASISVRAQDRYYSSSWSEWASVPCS
T1 sequence 2: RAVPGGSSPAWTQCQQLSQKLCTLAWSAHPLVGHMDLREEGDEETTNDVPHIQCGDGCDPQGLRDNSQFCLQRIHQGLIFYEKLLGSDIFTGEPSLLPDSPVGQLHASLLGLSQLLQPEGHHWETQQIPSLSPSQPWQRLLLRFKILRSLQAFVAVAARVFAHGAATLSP
Assay: SPR screen, crude scFv captured via FLAG
Give just the number in s⁻¹; leave the unit off.

Past entries and their recorded results:
# binder, recordedNumber
data = [
    ("scFv CW-H1 (scFv, scFv-80 variant: VL S52R; not shown: proprietary C-terminal FLAG tag) scFv: QVQLVQSGAEVKKPGASVKVSCKASGYTFTDYYLHWVRQAPGQGLEWMGWIDPENGDTEYAPKFQGRVTMTTDTSTSTAYMELRSLRSDDTAVYYCNANKELRYFDVWGQGTMVTVSSGGGGSGGGGSGGGGSEIVMTQSPATLSVSPGERATLSCRASQSISINLHWYQQKPGQAPRLLIYFARQSISGIPARFSGSGSGTEFTLTISSLQSEDFAVYYCQQSNSFPLTFGGGTKVEIKR", 0.00016),
    ("scFv BY-B4 (scFv, scFv-80 variant: VH T28A; not shown: proprietary C-terminal FLAG tag) scFv: QVQLVQSGAEVKKPGASVKVSCKASGYAFTDYYLHWVRQAPGQGLEWMGWIDPENGDTEYAPKFQGRVTMTTDTSTSTAYMELRSLRSDDTAVYYCNANKELRYFDVWGQGTMVTVSSGGGGSGGGGSGGGGSEIVMTQSPATLSVSPGERATLSCRASQSISINLHWYQQKPGQAPRLLIYFASQSISGIPARFSGSGSGTEFTLTISSLQSEDFAVYYCQQSNSFPLTFGGGTKVEIKR", 0.00033),
    ("scFv CE-A6 (scFv, scFv-80 variant: VL G64S; not shown: proprietary C-terminal FLAG tag) scFv: QVQLVQSGAEVKKPGASVKVSCKASGYTFTDYYLHWVRQAPGQGLEWMGWIDPENGDTEYAPKFQGRVTMTTDTSTSTAYMELRSLRSDDTAVYYCNANKELRYFDVWGQGTMVTVSSGGGGSGGGGSGGGGSEIVMTQSPATLSVSPGERATLSCRASQSISINLHWYQQKPGQAPRLLIYFASQSISGIPARFSSSGSGTEFTLTISSLQSEDFAVYYCQQSNSFPLTFGGGTKVEIKR", 0.00033),
]

In: Request the reported koff associated with scFv AQ-G10 (scFv, scFv-80 variant: VH K12E, R66G; not shown: proprietary C-terminal FLAG tag) scFv: QVQLVQSGAEVEKPGASVKVSCKASGYTFTDYYLHWVRQAPGQGLEWMGWIDPENGDTEYAPKFQGGVTMTTDTSTSTAYMELRSLRSDDTAVYYCNANKELRYFDVWGQGTMVTVSSGGGGSGGGGSGGGGSEIVMTQSPATLSVSPGERATLSCRASQSISINLHWYQQKPGQAPRLLIYFASQSISGIPARFSGSGSGTEFTLTISSLQSEDFAVYYCQQSNSFPLTFGGGTKVEIKR
Out: 0.00029

In: Data request, read-out koff, for scFv AU-G9 (scFv, scFv-80 variant: VH Q43R; VL I55T; not shown: proprietary C-terminal FLAG tag) scFv: QVQLVQSGAEVKKPGASVKVSCKASGYTFTDYYLHWVRQAPGRGLEWMGWIDPENGDTEYAPKFQGRVTMTTDTSTSTAYMELRSLRSDDTAVYYCNANKELRYFDVWGQGTMVTVSSGGGGSGGGGSGGGGSEIVMTQSPATLSVSPGERATLSCRASQSISINLHWYQQKPGQAPRLLIYFASQSTSGIPARFSGSGSGTEFTLTISSLQSEDFAVYYCQQSNSFPLTFGGGTKVEIKR
Out: 0.00031
